- System: HCT-8 cells
- assay.info: in vitro proliferating human colon adenocarcinoma (HCA) cell screen
- Format: cell-based
- protocol.conditions: Table 1, 60 to 65 hours with compound, 50% inhibition of growth, read-out: HCA—3 in vitro ID50
- Description: One test protocol is the in vitro proliferating human colon adenocarcinoma (HCA) cell screen. In this test, HCT-8 cells (HCA cell line received from Yale University) are trypsinized using trypsin-EDTA. A single cell suspension is achieved by passing the cells through a 26 gauge needle with a 20 cc syringe. […] The number of nuclei is determined using a Coulter counter (ZBI model), and a percent growth for each drug concentration is calculated. […]
Criterion: IC50 strictly less than 400 nM. Met: condition met. Not met: condition not met.

# compound.structure, class.assignment
rows = [
    ("CCN(CC)CCn1nc2c3c(c(NC(C)=O)ccc31)Sc1ccccc1-2", "condition not met"),
    ("CN(C)CCCn1nc2c3c(c(NCCN)ccc31)Sc1ccccc1-2", "condition met"),
    ("CN(C)CCn1nc2c3c(c(N)ccc31)Sc1ccccc1-2", "condition met"),
    ("OCCNCCNc1ccc2c3c(nn2CCNCCO)-c2ccccc2Sc13", "condition not met"),
    ("CN(C)CCn1nc2c3c(c([N+](=O)[O-])ccc31)Sc1ccccc1-2", "condition met"),
]

Task: In the record for `CCN(CC)CCNc1ccc2c3c(nn2CCN(CC)CC)-c2ccccc2Sc13` , is IC50 less than 400 nM?
Result: condition not met

Task: In the record for `NCCn1nc2c3c(c(N)ccc31)Sc1ccccc1-2` , is IC50 less than 400 nM?
Result: condition met

Task: In the record for `NCCn1nc2c3c(c(NCCNCCO)ccc31)Sc1ccccc1-2` , is IC50 less than 400 nM?
Result: condition met
